Data provenance is PubChem BioAssay (EPA / NIEHS).

- Read-out: Interferon-gamma inducible Protein 10 (IP10), CXCL10 (gene 3627)
- assay_name: BSK_KF3CT_IP10: BioMAP Diversity Plus: KF3CT Assay for Interferon-gamma inducible Protein 10 (IP10) Biomarker Activity (AID 2283068)
- condition_info: primary human keratinocytes with fibroblasts; actives raise or lower the signal
Activity calls are given as the source filed them. The calls were made as follows: active = hit-call score of the fitted dose curve at least 0.9, where 1 is the maximum; inactive = score below 0.9.

| compound | AC50 |
| --- | --- |
| O=P(OCCCl)(OCCCl)OCCCl | inactive |
| c1ccc2c(c1)oc1ccccc12 | inactive |
| [As]#[In] | inactive |
| Nc1ccc(N=Nc2ccccc2)cc1 | inactive |
| CCOC(=O)[C@]1(c2ccccc2)Oc2ccccc2[C@@H]1N | inactive |
| COc1cc(C=O)cc2c1[C@H](COC(N)=O)[C@]1(OC(C)=O)ON2C[C@H]2[C@@H]1N2C(C)=O | 13 µM (active) |
| CN(C)c1ccccc1 | inactive |
| CCCSC(=O)N(CCC)CCC | inactive |
| Brc1ccc(Oc2ccccc2)cc1 | inactive |
| Oc1ccccc1Cl | inactive |
| Cc1ccc(N=C=O)cc1N=C=O | inactive |
| ClC1=C(Cl)C2(Cl)C3C(Cl)C=CC3C1(Cl)C2(Cl)Cl (stereo not given) | 15.3 µM (active) |
| C[N+](C)(C)CC1CO1 (stereo not given) | inactive |
| CC(C)(C)C(O)(CCc1ccc(Cl)cc1)Cn1cncn1 (stereo not given) | inactive |
| ClCCOCCCl | inactive |
| CCN(CC)N=O | inactive |
| O=[N+]([O-])c1ccc(Oc2ccc(Cl)cc2Cl)cc1 | inactive |
| CCOc1cccc(C2(N3CCN(c4ccccc4)CC3)CCC(C)CC2)c1 (stereo not given) | inactive |
| ClC1=C(Cl)[C@]2(Cl)[C@H]3[C@H]([C@@H]4C=C[C@H]3C4)[C@@]1(Cl)C2(Cl)Cl | 14.5 µM (active) |
| [Cl-].[Cl-].[Hg+2] | 12.8 µM (active) |
| OCCCBr | inactive |
| Clc1ccc(Cl)c(Cl)c1 | inactive |
| CC(C)(C)OOC(C)(C)CCC(C)(C)OOC(C)(C)C | inactive |
| COC(=O)Nc1nc2ccccc2[nH]1 | inactive |
| C=CCc1ccc2c(c1)OCO2 | inactive |
| c1ccc2c(c1)-c1cccc3cccc-2c13 | inactive |
| Nc1cc(Cl)cc(C(=O)O)c1Cl | inactive |
| N#CC(Br)(Br)C(N)=O | inactive |
| Nc1ccc(Cc2ccc(N)cc2)cc1 | inactive |
| CC(C)(OOC(C)(C)c1ccccc1)c1ccccc1 | inactive |

---

- Read-out: Vascular cell adhesion molecule 1 (VCAM1), VCAM1 (gene 7412)
- assay_name: BSK_LPS_VCAM1: BioMAP Diversity Plus: LPS Assay for Vascular cell adhesion molecule 1 (VCAM1) Biomarker Activity (AID 2283086)
- condition_info: primary human HUVEC with PBMC; actives raise or lower the signal
Calls of active or inactive are those of the source. The calls were made as follows: active = hit-call score of the fitted dose curve at least 0.9, where 1 is the maximum; inactive = score below 0.9.
Outcomes: active, inactive

| compound | class_label |
| --- | --- |
| [O-][Cl+]O | inactive |
| O=P(OCCCl)(OCCCl)OCCCl | inactive |
| CCCCCOC(=O)c1ccccc1C(=O)OCCCCC | active |
| CC(C)(C)OOC(C)(C)CCC(C)(C)OOC(C)(C)C | inactive |
| Nc1cc(Cl)cc(C(=O)O)c1Cl | inactive |
| Cc1cccc(N)c1N | active |
| COC(=O)Nc1nc2ccccc2[nH]1 | active |
| COc1cc(C=O)cc2c1[C@H](COC(N)=O)[C@]1(OC(C)=O)ON2C[C@H]2[C@@H]1N2C(C)=O | active |
| COP(=S)(OC)SCN1C(=O)c2ccccc2C1=O | inactive |
| CCCCOC(=O)c1ccccc1C(=O)OCc1ccccc1 | active |
| Cn1cc(-c2ccccc2)c(=O)c(-c2cccc(C(F)(F)F)c2)c1 | inactive |
| Cc1ccc(N)c(N)c1 | active |
| C[N+](C)(C)CC1CO1 (stereo unspecified) | inactive |
| C=CCc1ccc2c(c1)OCO2 | inactive |
| ClCCOCCCl | inactive |
| N#CC(Br)Br | inactive |
| COC(=O)c1ccccc1N | inactive |
| Cc1cc(N=Nc2ccccc2C)ccc1N | active |
| Clc1ccc(C(c2ccc(Cl)cc2)C(Cl)Cl)cc1 | active |
| O=[N+]([O-])C(Br)(CO)CO | active |
| Nc1ccc(Oc2ccc(N)cc2)cc1 | inactive |
| Oc1ccccc1Cl | inactive |
| CCCSC(=O)N(CCC)CCC | inactive |
| CCCCCCCCn1sccc1=O | active |
| CCOC(=O)[C@]1(c2ccccc2)Oc2ccccc2[C@@H]1N | inactive |
| CN(C)[C@@H]1C(=O)C(C(N)=O)=C(O)[C@@]2(O)C(=O)C3=C(O)c4c(O)cccc4[C@@](C)(O)[C@H]3C[C@@H]12 | inactive |
| c1ccc(NNc2ccccc2)cc1 | inactive |
| CCCCCCCCCCCCCN1CC(C)OC(C)C1 (stereo unspecified) | inactive |
| Oc1ccc2ccc3cccc4ccc1c2c34 | active |
| ClC1=C(Cl)[C@]2(Cl)[C@H]3[C@H]([C@@H]4C=C[C@H]3C4)[C@@]1(Cl)C2(Cl)Cl | active |
| c1ccc2c(c1)oc1ccccc12 | inactive |
| CC(C)(C)C(O)(CCc1ccc(Cl)cc1)Cn1cncn1 (stereo unspecified) | inactive |
| CC(C)N(Cc1ccccc1)C(=O)C(C)(C)C | inactive |
| c1ccc(N=Nc2ccccc2)cc1 | inactive |
| O=C(O)C1C2CCC(O2)C1C(=O)O (stereo unspecified) | inactive |
| Clc1ccc(Cl)c(Cl)c1 | inactive |

---

- assay_name: STM_H9_OrnCyssISnorm_ratio: Stemina devTOX quickPredict H9 human embryonic stem cell (hESC)-based Assay for Ornithine (ORN):Cystine (CYSS) Ratio (AID 2283714)
Records with an inconclusive call do not appear. Active and inactive are the calls of the source. The calls were made as follows: active = hit-call score of the fitted dose curve at least 0.9, where 1 is the maximum; inconclusive = response in the unintended direction; inactive = score below 0.9.
Possible outcomes: active, inactive

| molecule | class_label |
| --- | --- |
| Clc1ccc(C(c2ccc(Cl)cc2)C(Cl)Cl)cc1 | inactive |
| CO[C@@H]1[C@H](OC(=O)NC(=O)CCl)CC[C@]2(CO2)[C@H]1[C@@]1(C)O[C@@H]1CC=C(C)C | active |
| [Cl-].[Cl-].[Hg+2] | active |
| Brc1ccc(Oc2ccccc2)cc1 | inactive |
| Cc1cccc(N)c1N | active |
| Cn1cc(-c2ccccc2)c(=O)c(-c2cccc(C(F)(F)F)c2)c1 | inactive |
| C[N+](C)(C)CC1CO1 (centres undefined) | active |
| CN(C)C(=O)Nc1ccc(Cl)cc1 | inactive |
| CCC[CH2][Sn]([Cl])([CH2]CCC)[CH2]CCC | active |
| COC(=O)Nc1nc2ccccc2[nH]1 | active |
| CC(C)COC(=O)c1ccccc1C(=O)OCC(C)C | active |
| O=[N+]([O-])c1ccc(Oc2ccc(Cl)cc2Cl)cc1 | active |
| CCCCCCCCCCCCCN1CC(C)OC(C)C1 (centres undefined) | active |
| Cc1ccc(N)cc1 | active |

---

- target_of_assay: Hepatocyte nuclear factor 3-beta (Homo sapiens) (UniProt Q9Y261)
- Sequence (Q9Y261 whole entry, looked up): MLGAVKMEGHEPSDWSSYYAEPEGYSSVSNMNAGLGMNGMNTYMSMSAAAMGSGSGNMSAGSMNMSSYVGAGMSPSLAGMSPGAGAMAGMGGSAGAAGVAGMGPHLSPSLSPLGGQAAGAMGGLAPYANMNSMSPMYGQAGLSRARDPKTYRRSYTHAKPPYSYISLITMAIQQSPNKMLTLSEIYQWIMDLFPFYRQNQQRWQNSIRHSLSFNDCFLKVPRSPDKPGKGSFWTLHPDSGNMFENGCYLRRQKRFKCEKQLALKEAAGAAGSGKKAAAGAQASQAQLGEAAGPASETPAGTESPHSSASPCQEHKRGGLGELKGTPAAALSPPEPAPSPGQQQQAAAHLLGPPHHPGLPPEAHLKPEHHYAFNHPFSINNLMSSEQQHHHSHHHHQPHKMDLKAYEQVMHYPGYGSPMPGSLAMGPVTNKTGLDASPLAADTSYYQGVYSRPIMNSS
- assay_name: ATG_FoxA2_CIS: Attagene CIS-FACTORIAL HepG2 Assay for human Forkhead box A2 (FOXA2) (AID 2282942)
- condition_info: HepG2 cis-reporter transcription factor activity, 24 h; actives raise or lower the signal
Active and inactive are the calls of the source. How the source made its calls: active means hit-call score of the fitted dose curve at least 0.9, where 1 is the maximum; inactive means score below 0.9.
Possible outcomes: active, inactive

| compound | class_label |
| --- | --- |
| OCCCl | inactive |
| [As]#[In] | inactive |
| CC(C)COC(=O)c1ccccc1C(=O)OCC(C)C | inactive |
| COP(=S)(OC)SCN1C(=O)c2ccccc2C1=O | inactive |
| Nc1ccc(Cl)cc1N | inactive |
| CCCSC(=O)N(CCC)CCC | inactive |
| CC(C)(C)OOC(C)(C)CCC(C)(C)OOC(C)(C)C | inactive |
| CO[C@@H]1[C@H](OC(=O)NC(=O)CCl)CC[C@]2(CO2)[C@H]1[C@@]1(C)O[C@@H]1CC=C(C)C | inactive |
| c1ccc2c(c1)oc1ccccc12 | inactive |
| CCCCCOC(=O)c1ccccc1C(=O)OCCCCC | inactive |
| Brc1ccc(Oc2ccccc2)cc1 | inactive |
| Cc1cc(N=Nc2ccccc2C)ccc1N | active |
| C1=Cc2cccc3cccc1c23 | inactive |
| Cc1ccc([N+](=O)[O-])cc1 | inactive |
| CC(C)N(Cc1ccccc1)C(=O)C(C)(C)C | inactive |
| [O-][Cl+]O | inactive |
| CCOc1cccc(C2(N3CCN(c4ccccc4)CC3)CCC(C)CC2)c1 (stereo not given) | inactive |
| Nc1cc(Cl)cc(C(=O)O)c1Cl | inactive |
| C[N+](C)(C)CC1CO1 (stereo not given) | inactive |
| c1ccc(NNc2ccccc2)cc1 | inactive |
